test system: CD2F1 mice, L1210 leukemia ip, survival T/C; assay: NCI In Vivo Anticancer Drug Screen. Data for tumor model L1210 Leukemia (intraperitoneal) in CD2F1 (CDF1) mice; conditions: endpoint: mean survival time; dose: 100.0 mg/kg/injection; schedule: Q04DX002 (ip); vehicle: Klucel (hydroxypropylcellulose) (HPC); higher = longer survival
Inconclusive results and toxic doses are left out.
T/C reference

Q: Which measured T/C value corresponds to CC1CCCN(N=Nc2ccccc2-c2nc(N)c3ccccc3n2)C1 (centres undefined) ?
Ans: 88 % of control

Q: Which measured T/C value corresponds to `NC(=S)N/N=C/c1nccn1-c1cccc([N+](=O)[O-])c1` ?
Ans: 104 % of control

Q: Which measured T/C value corresponds to CC(=O)OC1CCC2(C)C(CCC3C2CC(OC(C)=O)C2(C)C3CCC2C2(C)SCCS2)C1 (centres undefined) ?
Ans: 98 % of control

Q: Which measured T/C value corresponds to `Nc1nc(N)c(CCCOc2ccc([N+](=O)[O-])cc2Cl)c(N)n1` ?
Ans: 90 % of control

###

test system: CD2F1 mice, L1210 leukemia ip, survival T/C; assay: NCI In Vivo Anticancer Drug Screen. Data for tumor model L1210 Leukemia (intraperitoneal) in CD2F1 (CDF1) mice; settings: endpoint: mean survival time; dose: 200.0 mg/kg/injection; schedule: Q01DX009 (ip); vehicle: saline with Tween-80; higher = longer survival
Toxic doses and inconclusive results are not listed.
T/C reference

O=C1OC(c2ccc(O)cc2)(c2ccc(O)cc2)c2ccccc21 91 % of control
COC(=O)c1ccc(C)c(O)c1[N+](=O)[O-] 96 % of control
COc1ccc(C[C@@H]2NC[C@@H](O)[C@@H]2OC(C)=O)cc1 104 % of control
O=CNc1cc2ccccc2c2ccc3ccccc3c12 97 % of control
Cc1cccc(NC(=O)c2cccc(Cl)c2)c1C 96 % of control

Next compound, T/C to be filled in.
Q: Param readout= T/C; system= CD2F1 mice, L1210 leukemia ip, survival T/C; entry= `O=C1CC(c2ccc([N+](=O)[O-])cc2)=Nc2ccccc2N1` ; returns value.
Ans: 101 % of control

###

tested on: CD2F1 mice, L1210 leukemia ip, survival T/C; assay: NCI In Vivo Anticancer Drug Screen. Data for tumor model L1210 Leukemia (intraperitoneal) in CD2F1 (CDF1) mice; details: endpoint: mean survival time; dose: 200.0 mg/kg/injection; schedule: Q01DX009 (ip); vehicle: saline with Tween-80; higher = longer survival
Toxic doses and inconclusive results are not listed.
property measured: T/C

Q: Param readout= T/C; system= CD2F1 mice, L1210 leukemia ip, survival T/C; entry= `CN(CC#CCOc1ccc(Br)cc1)c1ccccc1` ; returns value.
Ans: 100 % of control

Q: Param readout= T/C; system= CD2F1 mice, L1210 leukemia ip, survival T/C; entry= `CC(C)(C)CC(C)(C)c1ccc(OCCOS(=O)(=O)c2cccc([N+](=O)[O-])c2)cc1` ; returns value.
Ans: 94 % of control

Q: Param readout= T/C; system= CD2F1 mice, L1210 leukemia ip, survival T/C; entry= `Cc1cc(Cl)c2nc(-c3ccccc3)ccc2c1` ; returns value.
Ans: 101 % of control

Q: Param readout= T/C; system= CD2F1 mice, L1210 leukemia ip, survival T/C; entry= `NN1C(=O)Cc2ccccc2C1=O` ; returns value.
Ans: 109 % of control

Q: Param readout= T/C; system= CD2F1 mice, L1210 leukemia ip, survival T/C; entry= O=C1CCCC1CC1CCCC1=O (stereo not drawn) ; returns value.
Ans: 106 % of control

Q: Param readout= T/C; system= CD2F1 mice, L1210 leukemia ip, survival T/C; entry= `CN1CN(C)C(=O)S(=O)(=O)C1` ; returns value.
Ans: 103 % of control

Q: Param readout= T/C; system= CD2F1 mice, L1210 leukemia ip, survival T/C; entry= `O=C(Nc1ccc(Cl)c(Cl)c1)c1cc(Cl)ccc1O` ; returns value.
Ans: 100 % of control

Q: Param readout= T/C; system= CD2F1 mice, L1210 leukemia ip, survival T/C; entry= `O=C(O)c1cccc(Cl)n1` ; returns value.
Ans: 97 % of control

Q: Param readout= T/C; system= CD2F1 mice, L1210 leukemia ip, survival T/C; entry= `Cc1ccccc1N` ; returns value.
Ans: 107 % of control

Q: Param readout= T/C; system= CD2F1 mice, L1210 leukemia ip, survival T/C; entry= CCCCCCCCC1SC1CCCCCCCC(=O)NCCOC(=O)CCCCCCCC1SC1CCCCCCCC (stereo not drawn) ; returns value.
Ans: 95 % of control

Q: Param readout= T/C; system= CD2F1 mice, L1210 leukemia ip, survival T/C; entry= CCC(/C=C/C(C)C1CCC2C3CC=C4CC(O)CCC4(C)C3CCC12C)C(C)C (stereo not drawn) (tested in a mixture with another compound) ; returns value.
Ans: 89 % of control

Q: Param readout= T/C; system= CD2F1 mice, L1210 leukemia ip, survival T/C; entry= `CC(=O)N(C)c1ccc(C)cc1C` ; returns value.
Ans: 96 % of control

Q: Param readout= T/C; system= CD2F1 mice, L1210 leukemia ip, survival T/C; entry= `C(=C\c1cccnc1)/c1ccncc1` ; returns value.
Ans: 95 % of control
